Values were extracted from ChEMBL document CHEMBL4814034.

Each entry below carries its reported activity at 20 min, 10 µM.
measurement_target: CYP2C9 (Homo sapiens)
Sequence (P11712 whole entry): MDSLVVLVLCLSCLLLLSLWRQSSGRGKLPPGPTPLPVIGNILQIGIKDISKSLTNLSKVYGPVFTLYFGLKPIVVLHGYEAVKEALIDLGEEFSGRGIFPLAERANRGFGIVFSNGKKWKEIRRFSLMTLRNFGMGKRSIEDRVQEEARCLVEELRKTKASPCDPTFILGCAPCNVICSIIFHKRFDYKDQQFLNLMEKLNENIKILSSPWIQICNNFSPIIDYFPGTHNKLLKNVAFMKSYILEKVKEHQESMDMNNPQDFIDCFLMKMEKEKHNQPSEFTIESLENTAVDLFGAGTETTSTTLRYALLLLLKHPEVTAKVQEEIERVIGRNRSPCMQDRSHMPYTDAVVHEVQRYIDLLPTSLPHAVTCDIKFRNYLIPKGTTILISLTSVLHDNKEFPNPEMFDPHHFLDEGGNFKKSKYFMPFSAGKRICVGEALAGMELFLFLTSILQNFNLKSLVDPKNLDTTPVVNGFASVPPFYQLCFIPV
assay_info: Inhibition of CYP2C9 in human liver microsomes assessed as enzyme remaining activity at 10 uM using diclofenac as substrate incubated for 20 mins in presence of NADPH by LC-MS/MS analysis relative to control
Assay type: ADME
reported_conditions: probe diclofenac, read-out: Activity
Output spec: scalar in %, unitless text.

smiles_text=O=C(Oc1ccc(OCc2ccccc2)cc1)N(Cc1ccccc1)S(=O)(=O)c1ccc(Cl)cc1 observed_property="activity at 20 min, 10 µM" unit_text=% meas_value=97

Output activity at 20 min, 10 µM of `O=C(Oc1ccc(OCc2ccccc2)cc1)N(Nc1ccccc1)S(=O)(=O)c1ccc(Cl)cc1`
88.4

Report activity at 20 min, 10 µM, nothing else, for this compound: `O=C(Nc1ccc(OCCCCc2ccccc2)cc1)N(Cc1ccccc1)S(=O)(=O)c1ccc(Cl)cc1`
99.9

----------
The compounds listed here are annotated with their activity at 20 min, 10 µM.
measurement_target: CYP2C19 (Homo sapiens, UniProt P33261)
Sequence (P33261 whole entry): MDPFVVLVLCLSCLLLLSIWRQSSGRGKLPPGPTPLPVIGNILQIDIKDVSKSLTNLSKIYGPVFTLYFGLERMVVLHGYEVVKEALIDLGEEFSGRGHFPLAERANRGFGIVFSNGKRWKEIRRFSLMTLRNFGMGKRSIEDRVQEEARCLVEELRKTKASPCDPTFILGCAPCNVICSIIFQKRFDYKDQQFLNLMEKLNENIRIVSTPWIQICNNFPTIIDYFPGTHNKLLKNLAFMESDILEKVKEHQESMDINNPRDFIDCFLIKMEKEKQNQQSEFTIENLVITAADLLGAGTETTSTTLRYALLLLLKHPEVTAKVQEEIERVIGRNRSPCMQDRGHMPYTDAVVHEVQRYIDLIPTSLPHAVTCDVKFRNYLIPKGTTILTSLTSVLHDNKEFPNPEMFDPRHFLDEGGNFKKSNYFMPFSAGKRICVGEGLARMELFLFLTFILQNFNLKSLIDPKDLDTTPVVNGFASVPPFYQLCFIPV
assay_info: Inhibition of CYP2C19 in human liver microsomes assessed as enzyme remaining activity at 10 uM using mephenytoin as substrate incubated for 20 mins in presence of NADPH by LC-MS/MS analysis relative to control
Type: ADME
reported_conditions: probe mephenytoin, read-out: Activity

// known answers, use as guide
smiles_text=O=C(Oc1ccc(OCc2ccccc2)cc1)N(Nc1ccccc1)S(=O)(=O)c1ccc(Cl)cc1 measurement_target="CYP2C19 (Homo sapiens, UniProt P33261)" observed_property="activity at 20 min, 10 µM" meas_value=77.9%
smiles_text=O=C(Oc1ccc(OCc2ccccc2)cc1)N(Cc1ccccc1)S(=O)(=O)c1ccc(Cl)cc1 measurement_target="CYP2C19 (Homo sapiens, UniProt P33261)" observed_property="activity at 20 min, 10 µM" meas_value=56.9%

Please tell me the measured activity at 20 min, 10 µM for `O=C(Nc1ccc(OCCCCc2ccccc2)cc1)N(Cc1ccccc1)S(=O)(=O)c1ccc(Cl)cc1` ; system: CYP2C19 (Homo sapiens, UniProt P33261).
8.7%

----------
measurement_target: Prostaglandin E synthase (Homo sapiens)
Sequence (O14684 whole entry): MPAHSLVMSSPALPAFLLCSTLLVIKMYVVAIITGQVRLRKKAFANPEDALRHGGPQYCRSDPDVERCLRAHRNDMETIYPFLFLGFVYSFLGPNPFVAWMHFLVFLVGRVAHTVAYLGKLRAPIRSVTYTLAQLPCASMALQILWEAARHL
assay_info: Inhibition of mPGES-1 in human A549 cells assessed as reduction in IL-1beta stimulated PGE2 production incubated for 24 hrs by EIA
Assay type: cell-based
observed_property: IC50 (nM)
Kindly provide the numeric value in nM only, without the unit symbol.

smiles_text=O=C(Oc1ccc(OCc2ccccc2)cc1)N(Cc1ccccc1)S(=O)(=O)c1ccc(Cl)cc1 observed_property=IC50 meas_value=160

Query IC50 for `O=C(Nc1ccc(OCCCCc2ccccc2)cc1)N(Cc1ccccc1)S(=O)(=O)c1ccc(Cl)cc1`
240

Tell me measured IC50 for `O=C(Oc1ccc(OCc2ccccc2)cc1)N(Nc1cccc(Cl)c1)S(=O)(=O)c1ccc(Cl)cc1` please.
150

Using the record for `O=C(Oc1ccc(OCc2ccccc2)cc1)N(Nc1ccccc1)S(=O)(=O)c1ccc(Cl)cc1` , state its measured IC50.
190

// Input: `O=C(Nc1ccc(OCc2ccccc2)cc1)N(Cc1ccccc1)S(=O)(=O)c1ccc(Cl)cc1` . Output its IC50 only.
610

----------
measurement_target: Prostaglandin E synthase (Homo sapiens)
assay_info: Inhibition of mPGES-1 activity in IL-1beta stimulated human A549 cells by cell-free assay
observed_property: IC50 (µM)
Enter your answer as a number in µM; do not include the unit.

Given the compound `O=C(Oc1ccc(OCc2ccccc2)cc1)N(Cc1ccccc1)S(=O)(=O)c1ccc(Cl)cc1` , write its reported IC50.
7.37

----------
assay_info: Stability in human plasma assessed as parent compound remaining at 10 uM after 30 mins by UPLC-MS analysis
Format: ADME, cell-free
reported_conditions: read-out: Stabilty
Recorded remaining at 0.5 h, 10 µM for the following compounds

smiles_text=O=C(Oc1ccc(OCc2ccccc2)cc1)N(Nc1ccccc1)S(=O)(=O)c1ccc(Cl)cc1 observed_property="remaining at 0.5 h, 10 µM" meas_value="< 1%"
smiles_text=O=C(Oc1ccc(OCc2ccccc2)cc1)N(Cc1ccccc1)S(=O)(=O)c1ccc(Cl)cc1 observed_property="remaining at 0.5 h, 10 µM" meas_value="> 100%"

Answer with the recorded remaining at 0.5 h, 10 µM for the compound listed here: `O=C(Nc1ccc(OCCCCc2ccccc2)cc1)N(Cc1ccccc1)S(=O)(=O)c1ccc(Cl)cc1`
45%

----------
measurement_target: CYP3A4 (Homo sapiens, UniProt P08684)
Sequence (P08684 whole entry): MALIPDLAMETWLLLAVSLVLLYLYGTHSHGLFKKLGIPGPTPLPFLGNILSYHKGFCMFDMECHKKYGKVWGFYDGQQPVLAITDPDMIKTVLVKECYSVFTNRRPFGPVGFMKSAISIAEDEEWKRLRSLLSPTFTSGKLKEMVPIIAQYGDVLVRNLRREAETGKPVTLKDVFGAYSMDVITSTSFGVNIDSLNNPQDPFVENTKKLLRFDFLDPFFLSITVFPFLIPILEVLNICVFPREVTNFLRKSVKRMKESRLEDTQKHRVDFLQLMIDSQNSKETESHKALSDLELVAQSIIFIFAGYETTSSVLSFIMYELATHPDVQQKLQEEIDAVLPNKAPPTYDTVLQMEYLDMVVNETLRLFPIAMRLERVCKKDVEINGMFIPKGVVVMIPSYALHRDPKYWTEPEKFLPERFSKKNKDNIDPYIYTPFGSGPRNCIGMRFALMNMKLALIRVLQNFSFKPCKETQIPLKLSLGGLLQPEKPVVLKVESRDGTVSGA
assay_info: Inhibition of CYP3A4 in human liver microsomes assessed as enzyme remaining activity at 10 uM using testosterone as substrate incubated for 20 mins in presence of NADPH by LC-MS/MS analysis relative to control
Type: ADME
reported_conditions: probe testosterone, read-out: Activity
observed_property: activity at 20 min, 10 µM (%)
Give the value in % but do not write % after it.

smiles_text=O=C(Oc1ccc(OCc2ccccc2)cc1)N(Nc1ccccc1)S(=O)(=O)c1ccc(Cl)cc1 measurement_target="CYP3A4 (Homo sapiens, UniProt P08684)" meas_value=73.6

Below: the item to evaluate.
Provide only the value of recorded activity at 20 min, 10 µM for `O=C(Nc1ccc(OCCCCc2ccccc2)cc1)N(Cc1ccccc1)S(=O)(=O)c1ccc(Cl)cc1`
92.5

----------
measurement_target: UniProt Q9JM51
Sequence (Q9JM51 whole entry): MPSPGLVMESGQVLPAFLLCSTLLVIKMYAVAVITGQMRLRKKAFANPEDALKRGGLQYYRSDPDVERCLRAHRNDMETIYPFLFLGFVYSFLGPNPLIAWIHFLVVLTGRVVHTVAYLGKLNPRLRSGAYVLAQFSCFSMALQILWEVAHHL
assay_info: Inhibition of mPGES-1 in mouse RAW264.7 cells assessed as reduction in LPS-stimulated PGE2 production
Listing of recorded pIC50 by entry.
Note on pIC50: it is the negative log10 of concentration, concentration in mol/L.

smiles_text=O=C(Oc1ccc(OCc2ccccc2)cc1)N(Nc1ccccc1)S(=O)(=O)c1ccc(Cl)cc1 observed_property=pIC50 meas_value=7.22

API: the following record is the query input.
Output measured pIC50 for this item: `O=C(Oc1ccc(OCc2ccccc2)cc1)N(Cc1ccccc1)S(=O)(=O)c1ccc(Cl)cc1`
6.47
